experimental_details: Mold/mildew malodor coverage, jar test ranked by sensory panel
Parameters: species or system human
experimental_context: compound 10% in solvent; 8 oz jar, 1 hour equilibration; 15-18 panelists; scale 1 (No Coverage), 3 (Moderate Coverage), 5 (Excellent Coverage)
parameter: Mold/Mildew Malodor, mean rank of malodor coverage
Field format: numeric only.

# count of solved cases: 3
// query Given the molecule CC1C2CCC(C)(C2)CC12OCCO2 (stereo not shown) , what is its reported Mold/Mildew Malodor, mean rank of malodor coverage?
// result 2.39

// query # get_value(readout='Mold/Mildew Malodor, mean rank of malodor coverage', item= CC1CC2(C)C3CCC(C)(C3)CC2O1 (stereo not shown) )
// result 2.79

// query // returns reported Mold/Mildew Malodor, mean rank of malodor coverage for input CC1C(=O)CC2(C)CCC1C2 (stereo not shown) [Structure 2, 1,4-dimethyl-bicyclo[3.2.1]octan-3-one]
// result 3.63

// next entry
// query Consider the molecule shown here: CC12CCC(C1)C1(C)OC1C2 (stereo not shown) What is its recorded Mold/Mildew Malodor, mean rank of malodor coverage?
// result 3.87
